Measured Trimeric HA Binding: RLU by item
# system tested: recombinant soluble homotrimeric HA of A/Japan/305/57 (H2N2) (Influenza A virus A/Japan/305/1957(H2N2))
# method: HA microarray, BCC supernatant
# experimental setup: remark: other sources report otherwise
property measured: Trimeric HA Binding: RLU (RLU)

{"columns": ["binder", "property measured", "value unit", "measured result"],
 "data": [
  ["TCN-557 (5081_A04) (antibody, V domains shown) VH: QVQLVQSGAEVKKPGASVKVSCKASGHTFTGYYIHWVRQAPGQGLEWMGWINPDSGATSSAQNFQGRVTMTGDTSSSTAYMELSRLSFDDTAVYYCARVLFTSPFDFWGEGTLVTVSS VL: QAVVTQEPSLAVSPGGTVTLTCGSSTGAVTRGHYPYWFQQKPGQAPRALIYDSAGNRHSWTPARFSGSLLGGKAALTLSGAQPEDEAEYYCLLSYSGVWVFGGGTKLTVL", "Trimeric HA Binding: RLU", "RLU", 43400],
  ["TCN-555 (5246_L16) (antibody, V domains shown) VH: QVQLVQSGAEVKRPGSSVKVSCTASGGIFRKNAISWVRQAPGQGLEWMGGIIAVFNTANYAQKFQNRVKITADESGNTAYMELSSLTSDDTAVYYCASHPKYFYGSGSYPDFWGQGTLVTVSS VL: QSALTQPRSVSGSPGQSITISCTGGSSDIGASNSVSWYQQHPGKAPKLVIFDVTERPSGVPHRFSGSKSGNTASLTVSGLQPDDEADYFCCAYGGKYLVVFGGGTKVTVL", "Trimeric HA Binding: RLU", "RLU", 2130],
  ["TCN-542 (5079_A16) (antibody, V domains shown) VH: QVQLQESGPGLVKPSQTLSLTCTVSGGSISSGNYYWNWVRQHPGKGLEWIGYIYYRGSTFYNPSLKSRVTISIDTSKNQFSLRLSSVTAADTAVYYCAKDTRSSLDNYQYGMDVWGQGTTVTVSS VL: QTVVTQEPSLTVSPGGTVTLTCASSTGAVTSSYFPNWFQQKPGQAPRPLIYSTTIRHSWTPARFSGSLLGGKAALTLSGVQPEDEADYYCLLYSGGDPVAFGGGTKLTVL", "Trimeric HA Binding: RLU", "RLU", 142],
  ["TCN-535 (5246_P19) (antibody, V domains shown) VH: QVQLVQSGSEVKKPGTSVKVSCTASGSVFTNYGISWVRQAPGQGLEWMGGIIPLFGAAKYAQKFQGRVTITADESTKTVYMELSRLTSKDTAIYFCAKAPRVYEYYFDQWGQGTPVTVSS VL: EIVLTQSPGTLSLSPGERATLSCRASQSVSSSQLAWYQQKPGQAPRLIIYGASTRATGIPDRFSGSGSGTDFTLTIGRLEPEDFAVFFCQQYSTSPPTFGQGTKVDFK", "Trimeric HA Binding: RLU", "RLU", 26100],
  ["TCN-528 (5087_P17) (antibody, V domains shown) VH: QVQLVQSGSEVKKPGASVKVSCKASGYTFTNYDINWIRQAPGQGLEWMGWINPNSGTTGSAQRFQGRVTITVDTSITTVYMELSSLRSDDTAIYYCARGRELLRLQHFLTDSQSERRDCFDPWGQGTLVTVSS VL: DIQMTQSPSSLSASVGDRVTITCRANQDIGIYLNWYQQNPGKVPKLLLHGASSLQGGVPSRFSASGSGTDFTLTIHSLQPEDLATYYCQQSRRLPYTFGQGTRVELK", "Trimeric HA Binding: RLU", "RLU", 46400]
]}
